Source: ChEMBL document CHEMBL3232963

Molecular target: Neuronal acetylcholine receptor; alpha3/beta4 (Rattus norvegicus) (UniProt P04757+P12392)
Experiment: Antagonist activity at rat alpha3beta4 nAChR expressed in HEK293 cells assessed as inhibition of epibatadine-induced effect at 10 uM after 30 mins by fluorescent membrane potential assay relative to mecamylamine
Format: cell-based
Bridge positions count the residues as written; N and C are the ends. Square brackets hold non-standard residues; d marks the D form. Peptide text beside a SMILES is read from it. Nle = CCCC[C@H](N)C(=O)O; Abu = CC[C@H](N)C(=O)O
Attribute Measured: inhibition

CCCC[C@@H]1NC(=O)[C@H](CC)NC(=O)[C@H](Cc2ccccc2)NC(=O)[C@@H]2CSSC[C@H](NC(=O)CN)C(=O)N[C@@H](CSSC[C@@H](C(=O)O)NC(=O)[C@@H]3CCCN3C1=O)C(=O)N[C@@H](CO)C(=O)N[C@@H](Cc1cnc[nH]1)C(=O)N1CCC[C@H]1C(=O)N[C@@H](CC)C(=O)N2 (H-GCCSHP[Abu]CF[Abu][Nle]PC-OH; disulfide 2-8, 3-13): 35.5%

Continue with the compound presented below.
Incoming: inhibition for CCCC[C@@H]1NC(=O)[C@H](CC)NC(=O)[C@H](Cc2ccccc2)NC(=O)[C@@H]2CSSC[C@H](NC(=O)CN)C(=O)N[C@@H](CSSC[C@@H](C(=O)O)NC(=O)[C@H](Cc3ccc(O)cc3)NC1=O)C(=O)N[C@@H](CO)C(=O)N[C@@H](CCCC)C(=O)N1CCC[C@H]1C(=O)N[C@@H](CC)C(=O)N2 (H-GCCS[Nle]P[Abu]CF[Abu][Nle]YC-OH; disulfide 2-8, 3-13) ?
Outgoing: 106%
